test target: human melanocortin 1 receptor (human, UniProt Q01726 1-317)
Sequence (Q01726 whole entry): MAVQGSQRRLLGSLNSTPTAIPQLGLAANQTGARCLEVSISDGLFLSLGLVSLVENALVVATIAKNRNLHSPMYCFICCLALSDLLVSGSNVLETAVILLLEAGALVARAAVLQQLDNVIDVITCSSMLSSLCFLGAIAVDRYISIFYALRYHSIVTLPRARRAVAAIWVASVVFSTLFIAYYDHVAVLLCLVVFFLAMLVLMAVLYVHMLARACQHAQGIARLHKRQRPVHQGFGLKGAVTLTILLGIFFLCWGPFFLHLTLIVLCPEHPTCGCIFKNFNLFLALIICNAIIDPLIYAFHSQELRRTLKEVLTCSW
assay procedure: cell-based or functional assay
Positions of bridges follow the written chain, without caps; N, C: chain ends. Non-standard residues stand in square brackets, D forms with d. Thz = O=C(O)[C@@H]1CSCN1

{"binder": "cyclo(C[Thz]H[dF]HWCKR) (disulfide 1-7; SMILES N=C(N)NCCC[C@@H]1NC(=O)[C@H](CCCCN)NC(=O)[C@@H]2CSSC[C@H](NC1=O)C(=O)N1CSC[C@H]1C(=O)N[C@@H](Cc1c[nH]cn1)C(=O)N[C@H](Cc1ccccc1)C(=O)N[C@@H](Cc1c[nH]cn1)C(=O)N[C@@H](Cc1c[nH]c3ccccc13)C(=O)N2) [Chem. 118]", "censor symbol": "=", "MC1R cAMP EC50, nM": 4380}
{"binder": "cyclo(C[dP]H[dF]HWCAKKKW) (disulfide 1-7, also called c[c[Cys-D-Pro-His-D-Phe-His-Trp-Cys]-Ala-Lys-Lys-Lys-Trp]) [Chem. 98]", "censor symbol": ">", "MC1R cAMP EC50, nM": 55}
{"binder": "cyclo(CPH[dF]HWCAKKHR) (disulfide 1-7; SMILES C[C@@H]1NC(=O)[C@@H]2CSSC[C@H](NC(=O)[C@H](CCCNC(=N)N)NC(=O)[C@H](Cc3c[nH]cn3)NC(=O)[C@H](CCCCN)NC(=O)[C@H](CCCCN)NC1=O)C(=O)N1CCC[C@H]1C(=O)N[C@@H](Cc1c[nH]cn1)C(=O)N[C@H](Cc1ccccc1)C(=O)N[C@@H](Cc1c[nH]cn1)C(=O)N[C@@H](Cc1c[nH]c3ccccc13)C(=O)N2, also called c[c[Cys-Pro-His-D-Phe-His-Trp-Cys]-Ala-Lys-Lys-His-Arg]) [Chem. 95]", "censor symbol": "=", "MC1R cAMP EC50, nM": 87.7}
